# System: EKVX NSCLC
# TEST_DESCRIPTION: NCI tumour cell line growth inhibition, 48 h; in the data active = GI50 below about 0.43 µM; inactive = the rest
# output must be one of active, inactive

In [3]: df
Out[3]:
                                   compound  answer_label
0  Cn1cc(-c2csc(-c3cn(CCN4CCOCC4)c4ccc(F)cc34)n2)c2cccnc21      inactive

Q) Query: recorded result category for O=C1CC(c2ccccc2)Cc2nc3ccc(Cl)cc3cc21 (stereo unspecified) in this test
A) inactive

Q) Ok, now O=S(=O)(NC(=S)Nc1ccccc1)c1ccc(N2N=C3c4ccccc4CC3C2c2ccc(Cl)cc2)cc1 (stereo unspecified)
A) inactive

Q) Ok, now "COC(=O)c1[nH]nc(-c2ccccc2)c1N1CCCCC1"
A) inactive

Q) Ok, now "CC(=O)NNC(=O)c1nn(-c2ccc(Cl)cc2)cc1OC(C)=O"
A) inactive

Q) Ok, now "COc1cc2c(cc1OCCCCC(=O)Nc1ccc(-c3nc4ccccc4s3)cc1)N=C[C@@H]1CCCN1C2=O"
A) inactive

* * *

# Tested on: HCC-2998 colon
# TEST_DESCRIPTION: NCI tumour cell line growth inhibition, 48 h
READOUT_LABEL: TGI

Some solved entries appear below for comparison.
                           structure_smiles   system_tested    result
0  CCN(CC)c1ccc(/C=C/C(=O)c2cccc(NS(C)(=O)=O)c2)cc1  HCC-2998 colon  > 100 µM
1  Brc1cccc(C2(CCCC3(c4cccc(Br)n4)OCCO3)OCCO2)n1  HCC-2998 colon  > 100 µM

Please look at the following compound next.
Q) Quick one: TGI for "CN(C)CCCNC(=O)c1cc(NC(=O)c2cc(NC(=O)c3cc(NC(=O)CCCn4ccc(CO)c4CO)cn3C)cn2C)cn1C" ?
A) > 100 µM

* * *

For each entry below, report its TGI value.
# Test system: NCI/ADR-RES ovarian
# TEST_DESCRIPTION: NCI tumour cell line growth inhibition, 48 h

In [3]: df
Out[3]:
                                   compound    result
0               O=C(NN=C1CCCCC1)Nc1ccccc1Cl   63.9 µM
1  Cc1cc(=O)c2c(O)c3c(O)cc(O)c4c5c(O)cc(O)c6c(O)c7c(=O)cc(C)c8c1c2c(c34)c(c65)c78  > 100 µM
2  O=C1Nc2ccccc2NC1C1OC(c2ccccc2)=CC1=O (stereo not given)  > 100 µM
3  Cc1c(N2C(=O)/C(=C\c3ccc(O)cc3)N=C2c2ccccc2)c(=O)n(-c2ccccc2)n1C  > 100 µM

Please look at the following compound next.
Q) Param readout= TGI; system= NCI/ADR-RES ovarian; entry= "NC1=CC(=O)C(=O)c2cccnc21" ; returns value.
A) 24 µM

* * *

For each entry below, report its TGI value.
# System: BT-549 breast
# TEST_DESCRIPTION: NCI tumour cell line growth inhibition, 48 h

Some solved entries appear below for comparison.
>>> df
                                   molecule  readout_label    result
0  COC(=O)C[C@H](COCc1ccccc1)NC(=O)C[C@H](COCc1ccccc1)NC(=O)C[C@H](COCc1ccccc1)NC(=O)OC(C)(C)C            TGI  > 100 µM
1  COc1ccc2[nH]c(C(=O)N3CC(CCl)c4ccc([N+](=O)[O-])cc43)cc2c1 (stereo unspecified)            TGI  > 100 µM
2  COc1cc2c(cc1OCCCCCCNC(=O)c1cc3ccccc3[nH]1)N=CC1CCCN1C2=O (stereo unspecified)            TGI   74.2 µM

Count: 4. Required value per item: TGI.
1. O=C(NN=C1CCCCC1)Nc1ccccc1Cl
2. Cc1cccc2c(N)c3cccc(C(=O)NCC[N+](C)(C)Cc4sc(N5CCOCC5)nc4[N+](=O)[O-])c3nc12
3. CC(=O)c1ccc2c(c1)oc(=O)n2CCN(C)C
4. C1OCN2c3nonc3N3COCN4c5nonc5N1C2C43 (stereo unspecified)

A)
1. > 100 µM
2. 40.8 µM
3. > 100 µM
4. > 100 µM

Count: 3. Required value per item: TGI.
1. COc1ccc(N2CCN(c3ccc4c(c3)NCC(=O)N4)CC2)cc1
2. O=c1c2c([nH]c3cc4c(cc13)OCO4)-c1ccccc1CCC2
3. NC(=O)Nc1ccc2ncnc(Nc3ccc(Cl)cc3)c2c1

A)
1: > 100 µM; 2: > 50 µM; 3: 67.4 µM

Q) Quick one: TGI for O=C1Nc2ccccc2NC1C1OC(c2ccccc2)=CC1=O (stereo unspecified) ?
A) > 100 µM
